The origin of these recorded values is ChEMBL document CHEMBL1148878.

# measuredTarget: Proteinase-activated receptor 1 (Homo sapiens)
# Sequence (P25116 whole entry): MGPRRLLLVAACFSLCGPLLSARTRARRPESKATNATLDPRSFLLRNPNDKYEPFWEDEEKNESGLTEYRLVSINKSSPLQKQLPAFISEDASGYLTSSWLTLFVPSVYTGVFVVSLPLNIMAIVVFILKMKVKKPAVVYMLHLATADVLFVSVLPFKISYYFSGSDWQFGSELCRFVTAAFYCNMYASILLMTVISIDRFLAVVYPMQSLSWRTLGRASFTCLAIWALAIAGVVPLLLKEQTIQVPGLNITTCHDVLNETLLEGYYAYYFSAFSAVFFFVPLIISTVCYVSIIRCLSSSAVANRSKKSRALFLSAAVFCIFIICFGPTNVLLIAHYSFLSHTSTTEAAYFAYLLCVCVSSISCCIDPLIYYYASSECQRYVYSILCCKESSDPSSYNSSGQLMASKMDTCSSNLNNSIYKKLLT
# protocolSummary: Displacement of [3H]haTRAP from PAR1
measurementKind: IC50 (nM)

Answered cases to consult:
| compound | measuredTarget | measuredResult |
| --- | --- | --- |
| O=C1OC[C@H]2[C@@H]1Cc1c(ccc(F)c1F)[C@@H]2/C=C/c1ccc(-c2cccc(Cl)c2)cn1 | Proteinase-activated receptor 1 (Homo sapiens) | 15.5 |
| O=C1OC[C@H]2[C@@H]1Cc1c(F)cccc1[C@@H]2/C=C/c1ccc(-c2cccc(F)c2)cn1 | Proteinase-activated receptor 1 (Homo sapiens) | 20.5 |
| O=C1OC[C@H]2[C@@H]1Cc1c(F)cc(F)cc1[C@@H]2/C=C/c1ccc(-c2cccc(C(F)(F)F)c2)cn1 | Proteinase-activated receptor 1 (Homo sapiens) | 21.5 |
| O=C1OC[C@H]2[C@@H]1Cc1ccccc1[C@@H]2/C=C/c1ccc(-c2cccc(C(F)(F)F)c2)cn1 | Proteinase-activated receptor 1 (Homo sapiens) | 10 |

1: O=C1OC[C@H]2[C@@H]1Cc1ccc(F)cc1[C@@H]2/C=C/c1ccc(-c2cccc(F)c2)cn1
2: O=C1OC[C@H]2[C@@H]1Cc1c(Cl)cccc1[C@@H]2/C=C/c1ccc(-c2cccc(C(F)(F)F)c2)cn1 (racemic)
Lower value of IC50 belongs to which: 1 or 2 ? // respond with label for picked entry
1
(1: 10 nM, 2: 225 nM)
